# ASSAY COMMENT: Stability in rat liver microsomes assessed as parent compound remaining
# Type: ADME, Microsome
MEASURED PARAMETER: Stability (%)

Examples with answers:
CCN(c1cc2oc(-c3ccc(F)cc3)c(C(=O)NC)c2cc1-c1cccc(C(=O)NC2(c3ncccn3)CC2)c1)S(C)(=O)=O; 91
CNC(=O)c1c(-c2ccc(F)cc2)oc2cc(N(CCO)S(C)(=O)=O)c(-c3cccc(C(=O)NC4(c5ccccc5)CC4)c3)cc12; 0.6

P = CNC(=O)c1c(-c2ccc(F)cc2)oc2cc(N(CCO)S(C)(=O)=O)c(-c3cccc(C(=O)NC4(c5ccccn5)CC4)c3)cc12
Q = CNC(=O)c1c(-c2ccc(F)cc2)oc2ccc(-c3cccc(C(=O)NC4(c5ccccn5)CC4)c3)cc12
Exercise: Between the entries labeled P and Q , whose measured Stability is lower? Could you answer with the label of the item you picked?
Key: P

###

# ASSAY COMMENT: Permeability across basolateral side to apical side in human Caco2 cells expressing p-gp at 3 uM incubated for 2 hrs by LC-MS/MS analysis
# Format: ADME, cell-based
# EXPERIMENTAL CONTEXT: Caco-2, read-out: permeability
MEASURED PARAMETER: Papp B→A at 2 h, 3 µM (×10⁻⁶ cm/s)

CCNc1cc2oc(-c3ccc(F)cc3)c(C(=O)NC)c2cc1-c1ccc(OC)c(C(=O)NC2(c3ncccn3)CC2)c1; 17.6
CCN(c1cc2oc(-c3ccc(F)cc3)c(C(=O)NC)c2cc1-c1cc(C)c(OC)c(C(=O)NC2(c3ncccn3)CC2)c1)S(C)(=O)=O; 32.2

I = CCN(C(=O)OC)c1cc2oc(-c3ccc(F)cc3)c(C(=O)NC)c2cc1-c1ccc(OC)c(C(=O)NC2(c3ncccn3)CC2)c1
II = CCN(C(=O)C(F)(F)F)c1cc2oc(-c3ccc(F)cc3)c(C(=O)NC)c2cc1-c1ccc(OC)c(C(=O)NC2(c3ncccn3)CC2)c1
III = CCN(c1cc2oc(-c3ccc(F)cc3)c(C(=O)NC)c2cc1-c1cc(F)c(OC)c(C(=O)NC2(c3ncccn3)CC2)c1)S(C)(=O)=O
Exercise: Arrange by Papp B→A at 2 h, 3 µM, high to low. Answer by naming the labels in the order asked.
Key: III, I, II

Measured values drawn from ChEMBL document CHEMBL4325928 for this set.
